Source: patent US6538029B1

# System: PDE4
# assay-overview: PDE inhibition, PDE4 (similar protocols)
# Format: biochemical
Counter-ions that a name gives are not always drawn.
outcome-measure: IC50 (µM)
Express the result in µM but write the number alone.

# IC50 lookup, item CC1=C(CC(=O)NCc2ccccc2)c2cc(F)ccc2C1=Cc1ccncc1 [Compound 38, Hydrochloride]
6

---

# assay-overview: Acute toxicity study in rats
# run-parameters: rat, in vivo, ip, 1000 mg/kg
Counter-ions that a name gives are not always drawn.
outcome-measure: LD50

Looking for the measured LD50 of CC1=C(CC(=O)NCc2ccccc2)c2cc(F)ccc2C1=Cc1ccncc1 [Compound 38, Hydrochloride] , can you help?
> 1000 mg/kg

---

# assay-overview: Acute toxicity study in rats
# run-parameters: rat, in vivo, po
Counter-ions that a name gives are not always drawn.
outcome-measure: LD50

For CC1=C(CC(=O)NCc2ccccc2)c2cc(F)ccc2C1=Cc1ccncc1 [Compound 38, Hydrochloride] , what is its reported LD50?
> 2000 mg/kg

---

# assay-overview: Acute and seven-dose toxicity in dogs (capsules)
# run-parameters: both, dog, in vivo, po, 1000 mg/kg
Structures can show the parent of a compound that is named as a salt.
outcome-measure: LD50

May I ask what LD50 has been recorded for CC1=C(CC(=O)NCc2ccccc2)c2cc(F)ccc2C1=Cc1ccncc1 [Compound 38, Hydrochloride] ?
> 1000 mg/kg

---

# target-of-assay: PDE10 from 786-O (Homo sapiens, UniProt Q9Y233)
# Sequence (Q9Y233 290-1055 limits assumed): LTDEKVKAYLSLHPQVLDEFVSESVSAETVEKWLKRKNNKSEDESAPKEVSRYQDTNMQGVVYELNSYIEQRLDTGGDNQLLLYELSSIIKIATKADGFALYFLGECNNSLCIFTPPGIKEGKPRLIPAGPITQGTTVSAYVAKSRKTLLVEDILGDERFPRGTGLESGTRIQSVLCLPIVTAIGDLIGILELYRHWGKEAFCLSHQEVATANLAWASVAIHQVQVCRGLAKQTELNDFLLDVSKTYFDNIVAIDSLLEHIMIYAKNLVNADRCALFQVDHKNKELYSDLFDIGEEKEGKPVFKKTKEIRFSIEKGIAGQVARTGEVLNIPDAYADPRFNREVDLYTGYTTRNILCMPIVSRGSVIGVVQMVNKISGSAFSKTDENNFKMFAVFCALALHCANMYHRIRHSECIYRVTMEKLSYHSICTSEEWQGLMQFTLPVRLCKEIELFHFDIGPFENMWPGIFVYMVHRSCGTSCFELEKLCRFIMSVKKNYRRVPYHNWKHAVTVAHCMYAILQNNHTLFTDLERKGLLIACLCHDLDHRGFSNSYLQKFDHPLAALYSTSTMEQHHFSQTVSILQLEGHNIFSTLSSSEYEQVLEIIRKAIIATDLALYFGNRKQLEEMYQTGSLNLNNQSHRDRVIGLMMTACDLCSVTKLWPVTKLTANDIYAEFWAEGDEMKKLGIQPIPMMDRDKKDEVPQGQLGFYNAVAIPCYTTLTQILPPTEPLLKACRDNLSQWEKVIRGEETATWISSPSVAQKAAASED
# assay-overview: Inhibition and kinetics of PDE10 from 786-O (pooled fractions of the center peak)
# Format: biochemical
# run-parameters: μM IC50s on PDE10 from 786-O, cAMP, cAMP substrate at 0.09 μM; pooled center-peak fractions; table: N = 2 average, EHNA, Milrinone, Rolipram N = 1
List of IC50 values.
Hi! Could you send only the number? It should be in µM, unit omitted.

In the examples that follow, each entry is paired with its recorded IC50.
item-smiles: Cc1[nH]c(=O)c(C#N)cc1-c1ccncc1
unit-info: µM
IC50: 84
//
item-smiles: CCOC(=O)C1=C[C@]2(CC)CCCN3CCc4c(n1c1ccccc41)[C@@H]32
unit-info: µM
IC50: 38

Pending compound:
Quick one: IC50 for CCCOc1ccccc1-c1nc2nn[nH]c2c(=O)[nH]1 ?
13
